Assay: AUC (0 to 72 hrs) in C57BL/6 mouse tumor xenografted mouse MC38 cells at 1.88 mg/kg,iv and measured after 72 hrs by LC-MS/MS analysis
Format: ADME, organism-based, Neoplasm, MC-38
Parameters: dose 1.88 mg/kg, time 72 hrs, route iv

{"columns": ["smiles_string", "AUC(0-t) at 72 h [µM·h]"],
 "data": [
  ["N#Cc1cnc2ccc(-c3c(-c4ccc(F)c(Cl)c4)ncn3CCO)nn12", 6.1]
]}

====

Assay: Prodrug conversion in tumor of C57BL/6 mouse xenografted mouse MC38 cells assessed as BMS-986260 Cmax at 8 mg/kg,iv and measured after 48 hrs by LC-MS/MS analysis
Format: ADME, organism-based, Neoplasm, MC-38
Design: dose 8 mg/kg, time 48 hrs, route iv
Settings: in vivo
Numbered stars: 1 amine (or outer) side, 2 acyl side, 3 side chain; on linkers, the order of the positions; unused ones are H or OH. Square brackets hold non-standard residues; d marks the D form. Peptide text beside a SMILES is read from it. * marks the point of attachment. X1 = N#Cc1cnc2ccc(-c3c(-c4ccc(F)c(Cl)c4)ncn3CCOCN*)nn12; C18 diacid = O=C(O)CCCCCCCCCCCCCCCCC(=O)*; γGlu = O=C(O)[C@H](CCC(=O)[*:2])N[*:1]; PABC = O=C(OCc1ccc(N[*:1])cc1)[*:2]; AEEA = NCCOCCOCC(=O)O
property: Cmax

{"columns": ["compound", "test_result"],
 "data": [
  ["CC(C)C[C@H](NC(=O)COCCOCCNC(=O)COCCOCCNC(=O)CC[C@H](NC(=O)CCCCCCCCCCCCCCCCC(=O)O)C(=O)O)C(=O)N[C@@H](CO)C(=O)NCC(=O)N[C@@H](CCCCN)C(=O)Nc1ccc(COC(=O)NCOCCn2cnc(-c3ccc(F)c(Cl)c3)c2-c2ccc3ncc(C#N)n3n2)cc1 ({C18 diacid-γGlu-AEEA-AEEA}-LSGK[PABC]-X1)", "470 nM"]
]}

====

Test: AUC (0 to 72 hrs) in C57BL/6 mouse heart xenografted mouse MC38 cells at 1.88 mg/kg,iv and measured after 72 hrs by LC-MS/MS analysis
Assay type: ADME, organism-based, MC-38
Set-up: time 72 hrs, dose 1.88 mg/kg, route iv

{"columns": ["smiles_string", "AUC(0-t) at 72 h, µM·h"],
 "data": [
  ["N#Cc1cnc2ccc(-c3c(-c4ccc(F)c(Cl)c4)ncn3CCO)nn12", 10]
]}

====

Assay: Ratio of AUC in heart to blood in C57BL/6 mouse xenografted mouse MC38 cells at 1.88 mg/kg,iv and measured after 72 hrs by LC-MS/MS analysis
Assay type: ADME, organism-based
Conditions: read-out: Ratio AUC

{"columns": ["smiles_string", "Kp at 72 h"],
 "data": [
  ["N#Cc1cnc2ccc(-c3c(-c4ccc(F)c(Cl)c4)ncn3CCO)nn12", 1.7]
]}

====

Test: Prodrug conversion in tumor of C57BL/6 mouse xenografted mouse MC38 cells assessed as BMS-986260 Cmax at 8 mg/kg,iv and measured after 72 hrs by LC-MS/MS analysis
Assay type: ADME, organism-based, Neoplasm, MC-38
Set-up: dose 8 mg/kg, time 72 hrs, route iv
Conditions: in vivo
Numbered stars: 1 amine (or outer) side, 2 acyl side, 3 side chain; on linkers, the order of the positions; unused ones are H or OH. Square brackets hold non-standard residues; d marks the D form. Peptide text beside a SMILES is read from it. * marks the point of attachment. X1 = N#Cc1cnc2ccc(-c3c(-c4ccc(F)c(Cl)c4)ncn3CCOCN*)nn12; C18 diacid = O=C(O)CCCCCCCCCCCCCCCCC(=O)*; γGlu = O=C(O)[C@H](CCC(=O)[*:2])N[*:1]; PABC = O=C(OCc1ccc(N[*:1])cc1)[*:2]; AEEA = NCCOCCOCC(=O)O
property: Cmax (nM)

{"columns": ["compound", "test_result"],
 "data": [
  ["CC(C)C[C@H](NC(=O)COCCOCCNC(=O)COCCOCCNC(=O)CC[C@H](NC(=O)CC[C@H](NC(=O)CC[C@H](NC(=O)CCCCCCCCCCCCCCCCC(=O)O)C(=O)O)C(=O)O)C(=O)O)C(=O)N[C@@H](CO)C(=O)NCC(=O)N[C@@H](CCCCN)C(=O)Nc1ccc(COC(=O)NCOCCn2cnc(-c3ccc(F)c(Cl)c3)c2-c2ccc3ncc(C#N)n3n2)cc1 ({C18 diacid-γGlu-γGlu-γGlu-AEEA-AEEA}-LSGK[PABC]-X1)", 310],
  ["CC(C)C[C@H](NC(=O)COCCOCCNC(=O)COCCOCCNC(=O)CC[C@H](NC(=O)CC[C@H](NC(=O)CCCCCCCCCCCCCCCCC(=O)O)C(=O)O)C(=O)O)C(=O)N[C@@H](CO)C(=O)NCC(=O)N[C@@H](CCCCN)C(=O)Nc1ccc(COC(=O)NCOCCn2cnc(-c3ccc(F)c(Cl)c3)c2-c2ccc3ncc(C#N)n3n2)cc1 ({C18 diacid-γGlu-γGlu-AEEA-AEEA}-LSGK[PABC]-X1)", 310]
]}
